Please enter t where glass transition temperature is greater than or equal to 100 °C, and f where it is lower.

Examples with answers:
molecule: *Nc1cc(NC(=O)c2cccc(C(*)=O)c2)cc(C(=O)OCCOC(=O)/C=C/c2ccc(N(C)C)cc2)c1 (repeat unit)
group.label: t

molecule: *CC(*)(C#N)C(=O)OCCCC (repeat unit)
group.label: t

molecule: *c1ccc2c(c1)C(=O)N(c1ccc(Oc3ccc(N4C(=O)c5ccc(C(*)O[Si](C)(C)O[Si](C)(C)O[Si](C)(C)C)cc5C4=O)cc3)cc1)C2=O (repeat unit)
group.label: t

molecule: *c1ccc2c(c1)C(=O)N(c1ccc(OCCOCCOc3ccc(N4C(=O)c5ccc(C(*)(C(F)(F)F)C(F)(F)F)cc5C4=O)cc3)cc1)C2=O (repeat unit)
group.label: t

molecule: *CC(OCC)C1(C)C(=O)OC(=O)C1(*)C (repeat unit)
group.label: t

molecule: *Oc1ccc(C(C)(C)c2ccc(OC(=O)CCCCCCCCC(*)=O)cc2)cc1 (repeat unit)
group.label: f

molecule: *CCC1C[N+](C)(C)CC1* (repeat unit)
group.label: f

molecule: *c1ccc(Oc2ccc(C(=O)c3cccc(C(=O)c4ccc(Oc5ccc(N6C(=O)c7ccc(Oc8ccc9c(c8)C(=O)N(*)C9=O)cc7C6=O)cc5)cc4)n3)cc2)cc1 (repeat unit)
group.label: t

Evaluate *CCOCCOC(=O)CCCCCCCCC(=O)O* (repeat unit) : glass transition temperature at minimum 100 °C?
f

Evaluate *CCCCCCNC(=O)C(OC)C(OC)C(=O)N* (repeat unit) : glass transition temperature at minimum 100 °C?
t

Evaluate *Oc1c(Cl)cc(C(c2cc(Cl)c(OC(*)=O)c(Cl)c2)C2CC3CCC2C3)cc1Cl (repeat unit) : glass transition temperature at minimum 100 °C?
t

Evaluate *Oc1ccc(C(C)(C)c2ccc(OC(=O)c3ccc(C(c4ccc(C(*)=O)cc4)(C(F)(F)F)C(F)(F)F)cc3)cc2)cc1 (repeat unit) : glass transition temperature at minimum 100 °C?
t

Evaluate *O[Si](C)(C)CCCC(=O)Oc1ccc(/C=N/c2ccc(Cc3ccc(/N=C/c4ccc(OC(=O)CCC[Si](*)(C)C)cc4)cc3)cc2)cc1 (repeat unit) : glass transition temperature at minimum 100 °C?
f

Evaluate *CC(*)c1ccc(Cl)cc1C (repeat unit) : glass transition temperature at minimum 100 °C?
t

Evaluate *c1ccc2c(c1)C(=O)N(c1cccc(C(c3cccc(N4C(=O)c5ccc(C(*)(C(F)(F)F)C(F)(F)F)cc5C4=O)c3)(C(F)(F)F)C(F)(F)F)c1)C2=O (repeat unit) : glass transition temperature at minimum 100 °C?
t

Evaluate *CC(*)c1cc(C(=O)OCCCCCCCC)ccc1-c1ccc(OCCCCCCCC)cc1 (repeat unit) : glass transition temperature at minimum 100 °C?
f

Evaluate *Nc1ccc(Cc2ccc(NC(=O)NCCCCCCCCCCCCCCCCCCNC(*)=O)cc2)cc1 (repeat unit) : glass transition temperature at minimum 100 °C?
f

Evaluate *c1ccc(Oc2ccc(-c3cnc4ccc(Oc5ccc6nc(*)cnc6c5)cc4n3)cc2)cc1 (repeat unit) : glass transition temperature at minimum 100 °C?
t

Evaluate *c1ccc(-c2cc(-c3ccc(OCCCCCCCCCCCC)cc3)cc(-c3ccc(-c4ccc5c(c4)C(CCCCCC)(CCCCCC)c4cc(*)ccc4-5)cc3)c2-c2ccc(OCCCCCCCCCCCC)cc2)cc1 (repeat unit) : glass transition temperature at minimum 100 °C?
f

Evaluate *CC(*)(C)C(=O)OCCCCCCCCCCCOc1ccc(C(=O)Oc2ccc(C#N)cc2)cc1 (repeat unit) : glass transition temperature at minimum 100 °C?
f

Evaluate *CCCCOC(=O)OCCCCN1C(=O)c2ccc(-c3ccc4c(c3)C(=O)N(*)C4=O)cc2C1=O (repeat unit) : glass transition temperature at minimum 100 °C?
t

Evaluate *CC(*)(C)C(=O)OCCCCCCOc1ccc(/N=N/c2ccc([N+](=O)[O-])cc2)cc1 (repeat unit) : glass transition temperature at minimum 100 °C?
t

----------
# glass transition temperature listing for each entry below
A number alone suffices; assume °C.

Take a look at these entries with their results.
compound: *Oc1c(C)cc(C2(c3cc(C)c(Oc4ccc(C(=O)c5ccc(*)cc5)cc4)c(C)c3)CCC3CCCCC3C2)cc1C (repeat unit)
assay.value: 251.00
//
compound: *c1ccc(-c2cc(CCCCCCCC)c(-c3ccc(-c4ccc(-c5sc(-c6ccc([Si](C)(C)[Si](C)(C)[Si](C)(C)[Si](*)(C)C)s6)cc5CCCCCCCC)s4)s3)s2)s1 (repeat unit)
assay.value: 6.00
//
compound: *CCNC(=O)c1ccc(C(=O)N*)c(Oc2ccccc2)c1 (repeat unit)
assay.value: 164.00
//
compound: *CC(*)c1ccc(COCCOCC)cc1 (repeat unit)
assay.value: 0.00

Please find the next compound below.
Recorded glass transition temperature for *CCCCCNC(=O)CCCCCCCCCCCCCCCCCCC(=O)N* (repeat unit) , please?
52.00

----------
# glass transition temperature listing for each entry below
A number alone suffices; assume °C.

molecule: *O[Si](C)(C)O[Si](*)(C)c1c(F)c(F)c(F)c(F)c1F (repeat unit)
glass transition temperature, °C: -65.00

molecule: *CCCCCCOC(=O)CCCCCNC(=O)CCCCC(=O)NCCCCCC(=O)O* (repeat unit)
glass transition temperature, °C: -7.00

molecule: *Oc1ccc(S(=O)(=O)c2ccc(Oc3ccc(C(c4ccc(*)cc4)c4ccccc4C(=O)O)cc3)cc2)cc1 (repeat unit)
glass transition temperature, °C: 223.00

Please find the next molecule below.
Recorded glass transition temperature for *c1ccc(Cc2ccc(N3C(=O)c4ccc(S(=O)(=O)c5ccc6c(c5)C(=O)N(*)C6=O)cc4C3=O)c(C(C)(C)C)c2)cc1C(C)(C)C (repeat unit) , please?
336.00

----------
# glass transition temperature listing for each entry below
A number alone suffices; assume °C.

Take a look at these entries with their results.
molecule: *Oc1ccc(Oc2ccc(C(=O)c3ccc(*)c(S(=O)(=O)O)c3)cc2S(=O)(=O)O)cc1S(=O)(=O)O (repeat unit)
glass transition temperature / °C: 248.00

molecule: *OC(=O)Oc1ccc(S(=O)(=O)c2ccc(OC(=O)OC3CC4CC(*)CC(C3)O4)cc2)cc1 (repeat unit)
glass transition temperature / °C: 184.00

molecule: *CCCCCCNC(=O)CCC1(CCC(=O)N*)c2ccccc2-c2ccccc21 (repeat unit)
glass transition temperature / °C: 122.00

Recorded glass transition temperature for *CCCCCCCCCCNC(=O)CCCCCCCCCCC(=O)N* (repeat unit) , please?
49.00

Recorded glass transition temperature for *CCCCCCCCN1C(=O)c2ccc(-c3ccc(-c4ccc5c(c4)C(=O)N(*)C5=O)cc3)cc2C1=O (repeat unit) , please?
120.00

Recorded glass transition temperature for *Oc1ccc(OC(=O)Oc2ccc(C(C)(C)c3ccc(OC(*)=O)cc3)cc2)cc1 (repeat unit) , please?
97.00

Recorded glass transition temperature for */C=C(\C#N)c1cccc(/C(C#N)=C/c2ccc(/C=C/c3ccc(N(c4ccccc4)c4ccc(N(c5ccccc5)c5ccc(/C=C/c6ccc(*)s6)cc5)cc4)cc3)s2)c1 (repeat unit) , please?
178.00

----------
# glass transition temperature listing for each entry below
A number alone suffices; assume °C.

Take a look at these entries with their results.
compound: *Oc1cccc(Oc2ccc(Oc3cccc4c3C(=O)N(c3ccc(Oc5cccc(Oc6ccc(N7C(=O)c8cccc(*)c8C7=O)cc6)c5)cc3)C4=O)cc2)c1 (repeat unit)
units: °C
glass transition temperature: 198.00
--
compound: *c1cccc2c1C(=O)N(c1ccc(C3(c4ccc(N5C(=O)c6cccc(*)c6C5=O)c(C)c4)c4ccccc4-c4ccccc43)cc1C)C2=O (repeat unit)
units: °C
glass transition temperature: 313.00

Please find the next compound below.
Recorded glass transition temperature for *Oc1ccc(C(c2ccc(Oc3ccc4c(c3)C(=O)N(CCCCN3C(=O)c5ccc(*)cc5C3=O)C4=O)cc2)(C(F)(F)F)C(F)(F)F)cc1 (repeat unit) , please?
180.00

----------
assay.readout: glass transition temperature
Provide the measurement as a number trailed by its unit.

Take a look at these entries with their results.
compound: *Nc1ccc(Nc2ccc(C(=O)c3ccc(C(=O)c4ccc(*)cc4)cc3)cc2)cc1 (repeat unit)
assay.value: 203.50 °C
//
compound: *CC(*)(F)C(=O)OCC(F)(F)C(F)(F)C(F)(F)C(F)F (repeat unit)
assay.value: 60.00 °C
//
compound: *CC(*)OC(=O)c1ccccc1 (repeat unit)
assay.value: 70.40 °C

Recorded glass transition temperature for *Oc1ccc(Oc2ccc(NC(=O)c3ccc(Oc4ccc(Oc5ccc(C(=O)Nc6ccc(*)cc6)cc5)cc4C)cc3)cc2)cc1 (repeat unit) , please?
200.00 °C

----------
# glass transition temperature listing for each entry below
A number alone suffices; assume °C.

compound: *C(=O)c1ccc2c(c1)C(=O)N(c1ccc(Oc3ccccc3N3C(=O)c4ccc(*)cc4C3=O)cc1)C2=O (repeat unit)
glass transition temperature [°C]: 282.50

Recorded glass transition temperature for *c1ccc(-c2ccc(N3C(=O)c4ccc(Oc5ccc6c(c5)C(=O)N(*)C6=O)cc4C3=O)cc2C(F)(F)F)c(C(F)(F)F)c1 (repeat unit) , please?
275.00

Recorded glass transition temperature for */C=C/c1cc(CCCCCCCCCC)c(/C=C/c2ccc(-c3ccc(*)nc3)cn2)cc1CCCCCCCCCC (repeat unit) , please?
68.00

Recorded glass transition temperature for *CC(O)CN(C)S(=O)(=O)c1cccc(S(=O)(=O)N(C)CC(O)COc2ccc(C3(c4ccc(O*)cc4)c4ccccc4-c4ccccc43)cc2)c1 (repeat unit) , please?
127.00
